Biological target: Transient receptor potential cation channel subfamily V member 2 (Homo sapiens, UniProt Q9Y5S1)
Sequence (Q9Y5S1 whole entry): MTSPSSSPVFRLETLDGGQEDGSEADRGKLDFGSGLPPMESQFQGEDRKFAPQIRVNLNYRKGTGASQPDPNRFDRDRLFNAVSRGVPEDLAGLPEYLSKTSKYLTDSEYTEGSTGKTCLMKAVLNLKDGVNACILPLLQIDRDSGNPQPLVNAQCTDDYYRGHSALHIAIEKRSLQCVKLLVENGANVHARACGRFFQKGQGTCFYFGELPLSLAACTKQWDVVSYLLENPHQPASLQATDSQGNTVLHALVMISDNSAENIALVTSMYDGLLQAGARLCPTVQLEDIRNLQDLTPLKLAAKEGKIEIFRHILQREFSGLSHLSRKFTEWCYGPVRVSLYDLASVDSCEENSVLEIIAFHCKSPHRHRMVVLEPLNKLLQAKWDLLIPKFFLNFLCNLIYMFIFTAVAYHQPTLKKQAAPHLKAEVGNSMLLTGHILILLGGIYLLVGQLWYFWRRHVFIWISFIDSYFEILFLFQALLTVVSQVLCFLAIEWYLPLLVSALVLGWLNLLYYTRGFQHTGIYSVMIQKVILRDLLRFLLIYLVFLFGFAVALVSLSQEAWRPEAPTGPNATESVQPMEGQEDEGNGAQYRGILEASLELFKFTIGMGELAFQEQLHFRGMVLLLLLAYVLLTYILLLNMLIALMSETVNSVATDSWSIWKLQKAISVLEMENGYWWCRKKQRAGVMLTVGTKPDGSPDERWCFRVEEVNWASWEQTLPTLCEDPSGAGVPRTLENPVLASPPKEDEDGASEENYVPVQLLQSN
Assay: Agonist activity at ionomycin-stimulated TRPV2 (unknown origin) activation
pEC50: −log10 of the molar value.
Classify as follows. Reported pEC50 greater than or equal to 5: criterion met. Reported pEC50 below: criterion not met.

Problem: hey, is pEC50 for this one >= 5? CCCCCc1cc(O)c(C/C=C(\C)CCC=C(C)C)c(O)c1 [CANNABIGEROL]
Result: criterion met

Problem: hey, is pEC50 for this one >= 5? CCCc1cc(O)c2c(c1)OC(C)(C)c1ccc(C)cc1-2
Result: criterion met

Problem: hey, is pEC50 for this one >= 5? CCCc1cc(O)c2c(c1)OC(C)(C)[C@@H]1CCC(C)=C[C@@H]21 [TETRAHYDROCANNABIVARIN]
Result: criterion met

Problem: hey, is pEC50 for this one >= 5? CCCCCc1cc(O)c2c(c1)OC(C)(C)c1ccc(C)cc1-2 [CANNABINOL]
Result: criterion not met

###

Biological target: Transient receptor potential cation channel subfamily V member 4 (Homo sapiens)
Sequence (Q9HBA0 whole entry): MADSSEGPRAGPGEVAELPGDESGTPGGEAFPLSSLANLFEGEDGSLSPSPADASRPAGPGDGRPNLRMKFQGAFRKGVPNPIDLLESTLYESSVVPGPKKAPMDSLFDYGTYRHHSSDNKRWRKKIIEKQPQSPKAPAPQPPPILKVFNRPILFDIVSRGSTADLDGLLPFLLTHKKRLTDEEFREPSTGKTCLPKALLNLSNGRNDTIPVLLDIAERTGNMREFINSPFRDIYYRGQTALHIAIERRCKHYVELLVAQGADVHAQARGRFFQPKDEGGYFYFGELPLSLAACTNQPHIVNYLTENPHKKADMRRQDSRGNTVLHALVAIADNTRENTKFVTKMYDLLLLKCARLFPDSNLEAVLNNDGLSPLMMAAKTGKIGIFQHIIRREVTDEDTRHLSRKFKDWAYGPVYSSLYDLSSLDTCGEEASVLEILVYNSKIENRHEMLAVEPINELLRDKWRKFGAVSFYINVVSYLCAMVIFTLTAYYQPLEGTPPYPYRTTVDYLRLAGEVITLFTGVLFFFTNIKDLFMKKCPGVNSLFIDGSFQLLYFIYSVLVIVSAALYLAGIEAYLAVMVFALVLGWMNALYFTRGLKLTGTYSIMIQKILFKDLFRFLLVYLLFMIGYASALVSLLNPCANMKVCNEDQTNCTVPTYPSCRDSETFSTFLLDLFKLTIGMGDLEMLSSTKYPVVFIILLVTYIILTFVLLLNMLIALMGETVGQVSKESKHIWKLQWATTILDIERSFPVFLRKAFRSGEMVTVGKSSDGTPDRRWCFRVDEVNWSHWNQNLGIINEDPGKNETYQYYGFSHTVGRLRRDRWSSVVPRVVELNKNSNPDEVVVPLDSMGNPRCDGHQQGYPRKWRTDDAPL
Test: Agonist activity at ionomycin-stimulated TRPV4 (unknown origin) activation
Readout Type: EC50 (µM)
State the answer as a number, implicitly in µM.

Problem: Given the molecule CCCCCc1cc(O)c(C/C=C(\C)CCC=C(C)C)c(O)c1 , what is its reported EC50?
Result: 5.1

Problem: Given the molecule CCCc1cc(O)c2c(c1)OC(C)(C)[C@@H]1CCC(C)=C[C@@H]21 [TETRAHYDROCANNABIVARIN] , what is its reported EC50?
Result: 6.4

Problem: Given the molecule CCCCCc1cc(O)c2c(c1)OC(C)(C)c1ccc(C)cc1-2 , what is its reported EC50?
Result: 16.1

Problem: Given the molecule C=C(C)[C@@H]1CCC(C)=C[C@H]1c1c(O)cc(CCC)cc1O , what is its reported EC50?
Result: 0.9

Problem: Given the molecule CCCc1cc(O)c2c(c1)OC(C)(C)c1ccc(C)cc1-2 , what is its reported EC50?
Result: 7.3

Problem: Given the molecule CCCCCc1cc(O)c2c(c1)OC(C)(CCC=C(C)C)C=C2 (stereo unspecified) , what is its reported EC50?
Result: 0.6
